System: IGR37-XP cells (Vemurafenib-resistant)
Assay: Kinase inhibitor library screening, PrestoBlue cell viability, 1 or 10 μM, 72 h
Conditions: Homo sapiens, IGR-37, 72 h, read-out: cell viability, IGR37 XP, 10μΜ
READOUT_LABEL: viability at 10 µM (%)
The reply should contain only the number, in %.

Reported viability at 10 µM for "Oc1c2ccccc2c2c3c(cccc13)N=N2" was 45.8

# compound "O=C(NC[C@H](O)CO)c1ccncc1Nc1ccc(I)cc1F" ; its viability at 10 µM = 18.8

The reported value for "N#CC[C@H](C1CCCC1)n1cc(-c2ncnc3[nH]ccc23)cn1" in terms of viability at 10 µM is 76.6

viability at 10 µM for "CN(C)C/C=C/C(=O)Nc1cc2c(Nc3ccc(F)c(Cl)c3)ncnc2cc1O[C@H]1CCOC1" is 10

Record "C=CC(=O)Nc1ccc2ncnc(Nc3ccc(OCc4cccc(F)c4)c(Cl)c3)c2c1" , field viability at 10 µM: 1.1

# compound "C=CC(=O)Nc1cccc(Oc2nc(Nc3ccc(N4CCN(C)CC4)cc3OC)ncc2Cl)c1" ; its viability at 10 µM = 1.4

Entry "N#CCNC(=O)c1ccc(-c2ccnc(Nc3ccc(N4CCOCC4)cc3)n2)cc1" , viability at 10 µM reported as 11.7

viability at 10 µM measured on "CCN(CC)CCCCNc1ncc2cc(-c3cc(OC)cc(OC)c3)c(NC(=O)NC(C)(C)C)nc2n1" = 14.7

viability at 10 µM for "O=C(NOC[C@H](O)CO)c1ccc(F)c(F)c1Nc1ccc(I)cc1F" is 15.7

Form: compound = "Cc1cc(Nc2cc(N3CCN(C)CC3)nc(/C=C/c3ccccc3)n2)n[nH]1" ; viability at 10 µM = 2.2

Briefly, viability at 10 µM measured for "Cn1cc(C2=C(c3ccc(Cl)cc3Cl)C(=O)NC2=O)c2ccccc21" : 65.4

The recorded viability at 10 µM for "C[C@H](NC(=O)/C(C#N)=C/c1cccc(Br)n1)c1ccccc1" is 3.2

Reported viability at 10 µM for Cn1cnc2c(F)c(Nc3ccc(Br)cc3Cl)c(C(=O)NOCCO)cc21 [AZD6244 (Selumetinib)] was 42.2

viability at 10 µM reported for this compound "Oc1cccc(-c2nc(N3CCOCC3)c3oc4ncccc4c3n2)c1" : 0.328

Measured viability at 10 µM, Cc1cc(C(=O)NOCCO)c(Nc2ccc(I)cc2F)n(C)c1=O [AZD8330, reference compound] : 19

Item: "Cc1cc(Nc2nc(N[C@@H](C)c3ccc(F)cc3)c(C#N)cc2F)[nH]n1" | viability at 10 µM: 39.7

Notebook: "O=c1sn(-c2cccc3ccccc23)c(=O)n1Cc1ccccc1" , viability at 10 µM read as 74.1

Quick note, viability at 10 µM for O=C(Nc1cc(C(F)(F)F)cc(C(F)(F)F)c1)c1cc(Cl)ccc1O [IMD 0354, reference compound] landed at 4.1
